- measured target: T1, recombinant human GREM1 (hGREM1-His; C-terminal 10His tagged, R&D, #5190-GR) (human, UniProt O60565 25-184)
- T1 construct: range 25-184; also called recombinant human GREM1 with a C-terminal decahistidine tag
- T1 sequence: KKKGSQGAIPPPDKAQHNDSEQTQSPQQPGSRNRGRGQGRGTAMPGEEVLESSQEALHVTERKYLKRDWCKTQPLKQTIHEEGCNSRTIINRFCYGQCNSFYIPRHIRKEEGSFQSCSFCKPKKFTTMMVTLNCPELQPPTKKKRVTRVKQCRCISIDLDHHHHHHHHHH
- method summary: BLI Octet, mAb captured, 100 nM GREM1 + 5 uM heparin;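 also: octet Red96 biolayer interferometry at 25 °C, antibodies captured on anti-human IgG Fc biosensors, pH 7.4 HEPES buffer with 0.1 mg/mL BSA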
A collection of binders and their measured Binding Signal with 30 sec Association
recorded metric: Binding Signal with 30 sec Association

>  <binder>
H4H6233P (antibody, human IgG4, V domains shown, H4H prefix = human IgG4 Fc) VH: QVQLVESGGGVVQPGRSLRLSCAASGFTFSSYGMHWVRQAPGKGLEWVAVIWYDGSNYYYAASVKGRFTISRDNSENTLYLQMNRLRAEDTAVYYCAREGTGSTEDYFDYWGQGTLVTVSS VL: EIVLTQSPATLSLSPGERATLSCRASQSVSSFLAWYQQKPGQAPRLLIYDASNRATGIPVRFSGSGSGTDFTLTISSLEPEDFAVYYCQQRSNWPPYTFGQGTKLEIK

>  <measured value>
0.08 nm

$$$$
>  <binder>
H4H6232P (antibody, human IgG4, V domains shown, H4H prefix = human IgG4 Fc) VH: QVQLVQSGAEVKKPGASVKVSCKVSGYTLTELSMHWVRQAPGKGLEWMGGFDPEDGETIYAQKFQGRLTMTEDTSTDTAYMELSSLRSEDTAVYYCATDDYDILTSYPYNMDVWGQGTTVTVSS VL: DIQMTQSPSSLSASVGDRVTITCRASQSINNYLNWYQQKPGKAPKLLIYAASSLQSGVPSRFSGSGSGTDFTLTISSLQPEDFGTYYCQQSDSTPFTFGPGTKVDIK

>  <measured value>
0.06 nm

$$$$
>  <binder>
H4H6250P (antibody, human IgG4, V domains shown, H4H prefix = human IgG4 Fc) VH: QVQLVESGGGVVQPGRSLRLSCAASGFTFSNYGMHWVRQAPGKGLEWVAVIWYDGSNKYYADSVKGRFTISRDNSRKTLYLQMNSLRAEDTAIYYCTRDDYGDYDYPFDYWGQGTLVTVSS VL: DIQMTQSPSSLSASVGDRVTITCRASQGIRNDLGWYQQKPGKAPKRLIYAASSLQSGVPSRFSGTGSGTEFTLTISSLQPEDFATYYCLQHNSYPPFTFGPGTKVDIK

>  <measured value>
0.06 nm

$$$$
